Exercise: state measured self-cleavage kobs at 2500 uM GlcN6P for each of the variants provided.
B1: glmS ribozyme (parent)
chain: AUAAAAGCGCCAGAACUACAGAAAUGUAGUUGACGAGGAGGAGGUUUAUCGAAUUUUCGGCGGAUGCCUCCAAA

Variants of: B1
Test: self-cleavage kobs at 2500 uM GlcN6P; higher = faster cleavage; RNA array
Details: with glucosamine-6-phosphate
Fewer inactive variants are shown than the library holds.

Answered examples (8):
{"sequence input": "AUAAAAGCGCCAGACCUACAGAAAUGUAGUUGACGAGGAGGAGGUUUAUCAAAUUUUCCGCGGAUGCCUCCAAA [A15C G51A G59C]", "self-cleavage kobs at 2500 uM GlcN6P": "< 1e-05 s⁻¹"}
{"sequence input": "AUAAAAGCGCCGGAACUACAGAAAUGUAGUUGACGAGGAGGACGUUUAUCUAAUUUUCGGCGAACGCAUCCAAA [A12G G43C G51U G63A U65C C68A]", "self-cleavage kobs at 2500 uM GlcN6P": "< 1e-05 s⁻¹"}
{"sequence input": "AUAAAAGCGCUAGAACUACAGAAAUGUAGUUGACGAGGAGGAGGUUUACCGAAUUUUCGGCGCAUGCCUCCAAA [C11U U49C G63C]", "self-cleavage kobs at 2500 uM GlcN6P": "< 1e-05 s⁻¹"}
{"sequence input": "AUAAAAGCGCCAGAACUACAGAAAUGUAGUUGACGGGGAGGAGGUUUAUCGAAUUUUCGGCGGAUUCCUCCAAA [A36G G66U]", "self-cleavage kobs at 2500 uM GlcN6P": "< 1e-05 s⁻¹"}
{"sequence input": "AUAAAUGCGCCAGCACUACAGAAAUGUAGUUGACGAGGAGGAGGAUUGUCGAAUUUUCGGCGGAUUCCUCCAAA [A6U A14C U45A A48G G66U]", "self-cleavage kobs at 2500 uM GlcN6P": "< 1e-05 s⁻¹"}
{"sequence input": "AUAAAAGCGCCAGAACUACAGAAAUGUAGUUGACUGGGAGGAGGUUUAUCGAAUUUUCGGCGCAUGCCUCCAAA [G35U A36G G63C]", "self-cleavage kobs at 2500 uM GlcN6P": "< 1e-05 s⁻¹"}
{"sequence input": "AUAAAAGCGCCAGAACUACAGAAAUGUAGUCGACAAGGAGGAGGUUUCUCGAAUUUUCGGCGGAUGCCUCCAAA [U31C G35A A48C]", "self-cleavage kobs at 2500 uM GlcN6P": "< 1e-05 s⁻¹"}
{"sequence input": "AUAAAAUCGCCAGAACUACAGAAAUGUAGUUGACGAGGAGGAGGUUUAUCGAAUUUUCAGUGGAUGCCUCCAAA [G7U G59A C61U]", "self-cleavage kobs at 2500 uM GlcN6P": "< 1e-05 s⁻¹"}

Parameter requested: self-cleavage kobs at 2500 uM GlcN6P. Apply to each item below.
1. AUAAAAGCGCCAGAACUACAGAAAUGUAGUUCACGAGGAGGAGGUUUAUCGAAUUUUCGGCGGCUGCCUCCAAA [G32C A64C]
2. AUAAAAGCCCCAGAACUACAGAAAUGUAAUUGACGAGGAGGAGGUUUAUCUAAUUUUCGGCGGAUGCCUCCAAA [G9C G29A G51U]
3. AUAAAAGCGCCAGGACUACAGAAAUGUAGUUGACGAGGCUGAGGUAUAUCGACUUUUCGGCGGAUGCCUCCAAA [A14G A39C G40U U46A A53C]
4. AUAAAUGCGCCAGAACUACAGAAAUGUAGUUCAUGAGGAGGAGGUUUAUCGAAUUUUCGGCGGAUGCCUCCAAA [A6U G32C C34U]
5. AUAAAAGGGCCAGAACUACAGAAAUGUAGUUGACGAGGAGGAGGUUUAUAGAAUUUUCGGCGGAUGCCUCCAAA [C8G C50A]
6. AUAAAAGCGCCAGAACUACAGAAAUGUAGUUGACGAGGAGGAGGUUUAUCUAUUUUUCGGCGGAUGCCUCCAAA [G51U A53U]
7. AUAAAAGCGCCAGAGCUACAGAAAUGUAGUUAACGAGGAGGAGGUUUAUCGAAUUUUGGGCGGAUGCCUCCAAA [A15G G32A C58G]
8. AUAAAAAGGGCAGAACUACAGAAAUGUAGUUGACCAGGAGGAGGUUUAUCGAAUUUUCGGCGGAUGCCUCCAAA [G7A C8G C10G G35C]

1. < 1e-05 s⁻¹
2. < 1e-05 s⁻¹
3. < 1e-05 s⁻¹
4. < 1e-05 s⁻¹
5. < 1e-05 s⁻¹
6. < 1e-05 s⁻¹
7. 8.81e-05 s⁻¹
8. < 1e-05 s⁻¹

Value sought for every listed variant: self-cleavage kobs at 2500 uM GlcN6P.
1. AUAAAAGCGCCAGAACUACAGAAAUGUAGUUGACGAGGAGGAGGUUUAUCGAAUUUUCGGCGGAUGUCUUCAAA [C67U C70U]
2. AUAAAAGCGCCAGAACUACAGAAAUGUAGUUGACGAGGAGGAGGUUUAUCGUAUGUUCGGCGGAUGCCUCCAAA [A52U U55G]
3. AUAAAAGCGCCAGAACUACAGAAAUGUAGUUGACGAGGAGGUGGAUUAUCGAAUUUUCGGCGGAUGCCUCCAAA [A42U U45A]
4. AUAAAAGCGCCAGAUCUACAGAAAUGUAGUUGACGAGGAGGAGGUUUAUCGAAUUUUCGGCGGAUGACUCCAAA [A15U C67A]

1: 0.000264 s⁻¹; 2: 0.000109 s⁻¹; 3: 0.000134 s⁻¹; 4: 0.000861 s⁻¹

For every item in the list below, what is its measured self-cleavage kobs at 2500 uM GlcN6P?
1. AUAAAAGCGCCAGAAGUACAGAAAUGUAGUUGACGAGGAGGAGGUUUAUCGAAUUUUUGGCGGAUGCCUCCAAA [C16G C58U]
2. AUAAAAGCGCCAGAACUACAGAAAUGUAGUUGACGAGGAGUAGGUUUUUCGAAUUUUCGGCGGCUGCCUCCAAA [G41U A48U A64C]
3. AUAAAAGCGCCUGAACUACAGAAAUGUAGUUGACGAGGAGGAGGUUUAUCGAAUUUCCCGCGGAUGCCUCCAAA [A12U U57C G59C]

1: 3.89e-05 s⁻¹; 2: < 1e-05 s⁻¹; 3: < 1e-05 s⁻¹

For every listed record, write down its self-cleavage kobs at 2500 uM GlcN6P.
1. AUAAAAGCGCCAGAACUACAGAAAUGUAGUUGACGAGGAGGAUGUUUAUCGAAUUUUCGGCGGAUGCCUGCAAA [G43U C70G]
2. AUAAAAGCGCCAGAACUACAGAAAUGUAGUUGACAAGGAGGAGGCUUAUCGAAUUUUCGGCGGAUGCCUCCAAA [G35A U45C]
3. AUAAAAGCGCCAGAACUACAGAAAUGUAGUUGAGGAGGAGGACGUUUAUCGAAUUUUCGGCGGAUGCCUCCAAA [C34G G43C]
4. AUAAAAGCACCAGAACUACAGAAAUGUAGUUGACGAGGAGGAGGUUUAUAGAAUUCUCGGCGGAUGACUCCAAA [G9A C50A U56C C67A]
5. AUAAAAGUGCCAGAACUACAGAAAUGUAGUUGACGAGGAGGAGGUUUAUCGAAUUUUCGGCGAAUGCCUCCAAA [C8U G63A]
6. AUAAAAGCGCCAGAACUACAGAAAUGUAGUUGACGAGGAGGAGGAUUAUCGAAUUUUCUGCGGAUGCCUCCAAA [U45A G59U]

["< 1e-05 s⁻¹", "< 1e-05 s⁻¹", "< 1e-05 s⁻¹", "< 1e-05 s⁻¹", "< 1e-05 s⁻¹", "5.25e-05 s⁻¹"]

Quick request: self-cleavage kobs at 2500 uM GlcN6P for each listed item, please.
1. AUAAAAGCGCCAGACCUACAGAAAUGUAGUUGACGGGGAGGAGGUUUAUCGAAUAUUCGGCGGAUGCCUCCAAA [A15C A36G U55A]
2. AUAAAAGCGCCAGAAUUACAGAAAUGUAGUUGACGAGGAGGAGGUUUAUCGAAUUUUCGGCGGAUGGCUCCAAA [C16U C67G]
3. AUAAAAGCGCCAGAACUACAGAAAUGUAGUUGACCAGGAGGAUGUUUAUCGUAUUUUCGGUGGAUGCCUCCAAA [G35C G43U A52U C61U]
4. AUAAAAGCGGCAGAACUACAGAAAUGUAGUUGACGAGGAGGAGGUUUAUCGAAUUUUCGGCGCAGGCCUCCAAA [C10G G63C U65G]

< 1e-05 s⁻¹
0.000566 s⁻¹
< 1e-05 s⁻¹
< 1e-05 s⁻¹

Provenance of the data: the supplement of paper PMC7125110
